Recorded Tm, melting temperature of solution-phase unmodified DNA for the following compounds
Test system: unmodified duplex DNA (DNA-1: 5′-TAACAATAA-3′, DNA-2: 5′-TTATTGTTA-3′)
Experiment: Melting temperature of solution-phase unmodified duplex DNA (no nanoparticles)
Type: binding
Settings: 2 uM duplex DNA, 5 uM DNA binder; control (no DNA binder) 19.1
Procedure: […] To determine the Tm of the duplex DNA in the presence of DNA binders, 2 μM duplex DNA and 5 μM DNA binder were combined in 0.3 M NaCl 10 mM PBS. […] UV-vis melting curves were measured on a CARRY 500 spectrophotometer equipped with a circulating bath. The melting process was monitored by measuring the change in extinction at 260 nm. […]
reported-endpoint: Tm, melting temperature of solution-phase unmodified DNA (°C)

[[record]]
molecule = "O=C(O)c1ccc2c(c1)C(=O)c1ccccc1C2=O"
reported_value = 19.4

[[record]]
molecule = "Nc1c2ccccc2nc2ccccc12"
reported_value = 19.3

[[record]]
molecule = "N=C(N)c1ccc(-c2cc3ccc(C(=N)N)cc3[nH]2)cc1"
reported_value = 27.8

[[record]]
molecule = "COc1cccc2c1C(=O)c1c(O)c3c(c(O)c1C2=O)C[C@@](O)(C(C)=O)C[C@@H]3O[C@H]1C[C@H](N)[C@H](O)[C@H](C)O1"
reported_value = 25.4

[[record]]
molecule = "Cc1c2ccncc2c(C)c2c1[nH]c1ccccc12"
reported_value = 20.5

